Collected protein stability index values appear next to each entry.
B1: ADAMTS4 (parent)
chain: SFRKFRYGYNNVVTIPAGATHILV

- Variants of: B1
- Experiment: protein stability index of a GFP-peptide fusion (GPS, HEK-293T) (PSI 1-6); higher = more stable;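 note: lentivirally expressed fusions sorted by FACS into six bins by GFP to DsRed ratio, PSI derived from sequencing read proportions per bin multiplied by bin number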
- Recorded Conditions: c terminus: a fixed tail appended

Use these answered entries as a reference point.
[[record]]
mutant_label = "Y7N"
quantity_measured = "protein stability index"
result = 2.43

[[record]]
mutant_label = "N10W"
quantity_measured = "protein stability index"
result = 1.6

[[record]]
mutant_label = "V24K"
quantity_measured = "protein stability index"
result = 1.7


input: // protein stability index lookup, key: A19H
output: 1.96

input: Recorded protein stability index of G18H , please.
output: 1.71

input: Form field: reported protein stability index of T14Y
output: 2.27

input: Field request: protein stability index | item: L23F
output: 2.76

input: Quick check: protein stability index of G18C ?
output: 1.73
